experimental-system: T1, cynoSIRPα (NP_001271679), Extracellular Domain + His-Tag (cynomolgus monkey)
T1 construct: also called CySIRPα NP_001271679; not shown: His-Tag
T1 chain: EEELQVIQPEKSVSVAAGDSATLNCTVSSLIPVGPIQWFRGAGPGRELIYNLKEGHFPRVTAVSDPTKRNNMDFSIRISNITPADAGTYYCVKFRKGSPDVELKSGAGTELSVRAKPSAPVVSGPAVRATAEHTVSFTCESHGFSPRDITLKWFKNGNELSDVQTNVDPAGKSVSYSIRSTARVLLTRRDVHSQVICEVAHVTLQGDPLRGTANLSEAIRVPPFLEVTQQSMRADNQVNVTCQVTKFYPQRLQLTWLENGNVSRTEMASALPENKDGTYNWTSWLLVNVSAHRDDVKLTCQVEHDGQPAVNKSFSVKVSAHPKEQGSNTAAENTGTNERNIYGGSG
measurement-notes: SPR, antibody captured on Protein A/G, ECD-His analyte, steady-state fit
reported-metric: pKd
Schema: pKd number; meaning minus log10 of the concentration expressed in molar units.

Request: # return recorded pKd for input Antibody A4 (antibody, human IgG1, kappa, L234A L235A, V domains shown) VH: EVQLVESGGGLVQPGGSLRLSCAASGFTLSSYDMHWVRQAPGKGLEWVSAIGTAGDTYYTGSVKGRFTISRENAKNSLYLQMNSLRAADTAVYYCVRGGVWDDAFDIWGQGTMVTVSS VL: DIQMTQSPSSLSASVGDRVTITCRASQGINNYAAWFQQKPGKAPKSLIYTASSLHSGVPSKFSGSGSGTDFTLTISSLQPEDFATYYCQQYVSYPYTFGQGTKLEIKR
Result: 6.17

Request: # return recorded pKd for input Antibody A9 (antibody, human IgG1, kappa, L234A L235A, V domains shown) VH: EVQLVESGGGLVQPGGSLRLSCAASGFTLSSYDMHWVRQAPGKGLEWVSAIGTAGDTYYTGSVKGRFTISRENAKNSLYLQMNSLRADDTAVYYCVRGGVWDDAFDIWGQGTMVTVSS VL: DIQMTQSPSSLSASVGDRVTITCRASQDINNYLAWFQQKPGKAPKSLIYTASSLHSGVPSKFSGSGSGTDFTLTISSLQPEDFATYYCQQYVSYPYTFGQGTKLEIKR
Result: 6.46

Request: # return recorded pKd for input Antibody A13 (antibody, human IgG1, kappa, L234A L235A, V domains shown) VH: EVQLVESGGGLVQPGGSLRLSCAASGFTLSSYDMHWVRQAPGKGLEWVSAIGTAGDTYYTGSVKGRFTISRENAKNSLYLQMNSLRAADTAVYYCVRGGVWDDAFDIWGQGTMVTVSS VL: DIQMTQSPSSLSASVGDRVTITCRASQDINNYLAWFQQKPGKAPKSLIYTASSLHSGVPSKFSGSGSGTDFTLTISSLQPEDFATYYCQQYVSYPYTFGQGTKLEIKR
Result: 6.48
